The origin of these recorded values is patent US20110105397A1.

Target: T1, human corticotrophin releasing hormone receptor type 2 (CRHR2) (human, UniProt Q13324 1-411)
T1 sequence (looked up): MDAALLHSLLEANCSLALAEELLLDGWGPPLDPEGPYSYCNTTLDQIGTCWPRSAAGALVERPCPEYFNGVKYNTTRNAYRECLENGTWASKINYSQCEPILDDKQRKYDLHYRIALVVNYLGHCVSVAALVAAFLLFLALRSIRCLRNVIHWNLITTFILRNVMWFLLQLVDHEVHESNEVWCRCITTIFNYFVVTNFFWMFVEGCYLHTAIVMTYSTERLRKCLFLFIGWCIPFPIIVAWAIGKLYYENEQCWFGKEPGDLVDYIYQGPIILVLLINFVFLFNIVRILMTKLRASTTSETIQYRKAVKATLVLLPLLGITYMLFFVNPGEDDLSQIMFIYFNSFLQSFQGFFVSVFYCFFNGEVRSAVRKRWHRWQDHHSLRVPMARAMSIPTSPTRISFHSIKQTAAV
Assay: cell-based or functional assay
Where no end group is shown, it is not given here.
ASSAY_READOUT: Log DR (log10)

I = TKFTCSLDVPTNIMNLLFNIAKAKNLRAQAAANAHLMAQI-NH2 [Cys-variant stresscopin-like peptide SEQ ID NO: 6]
II = TKFTLSLDVPTNIMNLLFNIAKAKNLRAQAAANACLMAQI-NH2 [Cys-variant stresscopin-like peptide SEQ ID NO: 36]
Determine, for I and II , which has the greater value of Log DR. Which one? Tell me its label.
I
(I: 0.61 log10, II: 0.42 log10)
